# System: HL-60(TB) leukemia
# EXPERIMENTAL PROTOCOL: NCI tumour cell line growth inhibition, 48 h
TEST READOUT: TGI (µM)
Write the answer as a number in µM, unit excluded.

Output TGI of "COc1cc2c3c(n(CCCCN)c(=O)c2cc1OC)-c1cc2c(cc1C3=O)OCO2"
15.4

Output TGI of "c1csc(-c2cn3nc(-c4c[nH]c5ccccc45)sc3n2)c1"
20.9

* * *

# Test system: TK-10 renal
# EXPERIMENTAL PROTOCOL: NCI tumour cell line growth inhibition, 48 h
TEST READOUT: TGI

Output TGI of "COC(=O)c1sc(=S)sc1SCc1ccc(CSc2sc(=S)sc2C(=O)OC)cc1"
> 100 µM

Output TGI of CC1=NN(c2cccc(Cl)c2)C2(SCC(=O)N2c2nc3ccccc3s2)/C1=C\c1cccs1 (stereo unspecified)
80.6 µM

Output TGI of Cc1cc(O)c(C2=NN(c3ccc(S(N)(=O)=O)cc3)C(c3ccccc3Cl)C2)cc1Cl (stereo unspecified)
5.86 µM

Output TGI of CC1OC(OC2C[C@](O)(C(=O)CF)Cc3c(O)c4c(c(O)c32)C(=O)c2ccccc2C4=O)CC(N)C1O (stereo partly specified)
0.497 µM

Output TGI of CCCCCCCCC/C=C/C=C/C(=O)NCC(=O)NC1C(O)C(O)C(Nc2ncnc3nc[nH]c23)OC1C(O)CO (stereo unspecified)
1.71 µM

Output TGI of "CCSc1nc2cccc([N+](=O)[O-])c2n1CC"
> 100 µM

Output TGI of "CCOC(=O)Cn1c(=O)c2nc(SC)sc2n(CC)c1=S"
> 100 µM

Output TGI of "O=S(=O)(Nc1ccc(Br)c(Cl)c1)c1ccc(-c2cnc(C3CC3)o2)cc1"
20.6 µM

Output TGI of Brc1cc(CCOC2CCCCO2)c(-c2sccc2CCOC2CCCCO2)s1 (stereo unspecified)
> 100 µM

Output TGI of "Cc1cc2c(C)nn(Cc3ccccc3)c2c(C(N)=O)c1C"
> 100 µM

Output TGI of Clc1cc2c(cc1Cl)CC(NCCN1CCCC1)CC2 (stereo unspecified)
27.6 µM

Output TGI of "O=c1[nH]nc2ccccc2c1Cc1ccccc1"
> 100 µM

Output TGI of "O=c1cc(-c2ccccc2F)[nH]c2ccc(N3CCCC3)cc12"
> 100 µM

Output TGI of "C[C@H](CCC(=O)O)[C@H]1CC[C@@]2(C)[C@@H]3C(=O)C[C@H]4C(C)(C)[C@@H](O)CC[C@]4(C)[C@H]3C(=O)C[C@]12C"
> 100 µM

Output TGI of "COc1ccc(-n2c(=O)[nH]n(C(C)=O)c2=O)cc1"
> 100 µM

Output TGI of Cc1nn(C(=O)Cc2ccccc2)c2c1C(c1ccc(O)cc1O)SC(N)=N2 (stereo unspecified)
> 100 µM

Output TGI of "O=C(O)c1cc2ccc3ccccc3c2oc1=O"
> 100 µM

Output TGI of "NCCSC(c1ccccc1)c1ccccc1"
31.8 µM

Output TGI of CCOC1=C2C(=O)OC(=O)C2C2CCCCC2=C1 (stereo unspecified)
> 100 µM

Output TGI of "O=C1c2cccc(NCCN=Cc3cc([N+](=O)[O-])ccc3O)c2C(=O)c2c(NCCN=Cc3cc([N+](=O)[O-])ccc3O)cccc21"
> 100 µM

Output TGI of "NC(=O)c1c(NC(=O)c2ccccn2)sc2c1CCC(=O)C2"
> 100 µM

* * *

# Tested on: SW-620 colon
# EXPERIMENTAL PROTOCOL: NCI tumour cell line growth inhibition, 48 h
TEST READOUT: TGI (µM)
Write the answer as a number in µM, unit excluded.

Output TGI of "CN(C)CCN(C)c1ccc2c(=O)n(CCN(C)C)c(=O)n3c4ccccc4c(=O)c1c23"
8.34

Output TGI of Cc1ccc(N(C(=O)Nc2ccccc2)C2=NCC(C)S2)cc1C (stereo not given)
62.9

* * *

# System: SW-620 colon
# EXPERIMENTAL PROTOCOL: NCI tumour cell line growth inhibition, 48 h
TEST READOUT: TGI

Output TGI of "Cc1cc2c(C)nn(Cc3ccccc3)c2c(C(N)=O)c1C"
> 100 µM

Output TGI of "N#CC(=C1CCN(CCCC(=O)c2ccc(F)cc2)CC1)c1ccccc1"
> 100 µM

Output TGI of "O=c1c2ccccc2c(=O)n2n1CC=CC2"
> 100 µM

Output TGI of Nc1nc(N)c2nc(CNc3ccc(C(=O)NC(CC(=O)O)C(=O)O)cc3)cnc2n1 (stereo not given)
> 100 µM

Output TGI of "Cc1ccc(N2C(=O)CS/C2=C(\C#N)c2nc3ccccc3[nH]2)cc1"
> 100 µM

Output TGI of "O=C(Nc1cccc(-n2cc(-c3ccncc3)c(-c3ccc(Cl)c(O)c3)n2)c1)c1ccc(N2CCOCC2)c(C(F)(F)F)c1"
5.68 µM

Output TGI of "Cc1cc(Cl)ccc1Nc1nc(C(F)(F)F)ccc1C(=O)N/N=C/c1ccc(Cl)cc1"
11 µM

Output TGI of CCC1CN2C(=N1)c1ccccc1-c1cc(Cl)ccc12 (stereo not given)
15.5 µM

Output TGI of "C1=CC=C2NCCCCCCCNC3=CC=CC=CC3=NCCCCCCCN=C2C=C1"
> 100 µM

Output TGI of "C(=N\NC1=NCCN1)/c1ccc(-c2cn3cc(/C=N/NC4=NCCN4)ccc3n2)cc1"
> 100 µM

Output TGI of "COc1cccc(C2=C(c3c(C)n(C)c4ccccc34)C(=O)NC2=O)c1"
> 25 µM

Output TGI of Cc1nn(C(=O)Cc2ccccc2)c2c1C(c1ccc(O)cc1O)SC(N)=N2 (stereo not given)
> 100 µM

Output TGI of "COC(=O)c1sc(=S)sc1SCc1ccc(CSc2sc(=S)sc2C(=O)OC)cc1"
> 100 µM

Output TGI of "Cc1cc(NCCCCCCNc2cc(C)nc3cc(N(C)C)ccc23)c2ccc(N(C)C)cc2n1"
> 100 µM

Output TGI of "COC(=O)c1ccccc1OCc1cc(=O)oc2ccc(C)cc12"
> 100 µM

Output TGI of "CCCCc1ccc(Nc2nc(SC)c3[nH]cnc3n2)cc1"
> 100 µM

Output TGI of "COc1cc(OC)nc(-n2c(N)c(C#N)c3ccc([N+](=O)[O-])cc3c2=O)n1"
> 100 µM

Output TGI of "COc1cc2c(ccc3c4cc(OC)c(OC)cc4c[n+](C)c23)cc1O"
> 47.3 µM

Output TGI of "COc1ccc(/C=C/C(=O)c2ccc(O)c(CN3CCN(c4cc5c(cc4F)c(=O)c(C(=O)O)cn5C4CC4)CC3)c2)cc1"
> 100 µM

Output TGI of "O=C(Nc1cccc(-n2cc(-c3ccncc3)c(-c3cc(O)cc(Cl)c3)n2)c1)Nc1ccc(Cl)c(C(F)(F)F)c1"
10.7 µM

* * *

# Test system: HL-60(TB) leukemia
# EXPERIMENTAL PROTOCOL: NCI tumour cell line growth inhibition, 48 h
Consider the following compounds; for each one, report its GI50.

Output GI50 of CCC(C)[C@H]1O[C@]2(C=C[C@@H]1C)C[C@@H]1C[C@@H](C/C=C(\C)[C@@H](OC3C[C@H](OC)C(O[C@H]4C[C@H](OC)[C@@H](O)[C@H](C)O4)[C@H](C)O3)[C@@H](C)/C=C/C=C3\CO[C@@H]4[C@H](O)C(C)=C[C@@H](C(=O)O1)[C@]34O)O2 (stereo partly drawn)
1160 nM

Output GI50 of "COc1cc(Nc2c(C#N)cnc3cc(OCCCN4CCN(C)CC4)c(OC)cc23)c(Cl)cc1Cl"
1590 nM

Output GI50 of "Cc1ccc(-c2nc(C#N)c(S(=O)(=O)n3nc(C)cc3N)o2)cc1"
2000 nM

* * *

# System: M14 melanoma
# EXPERIMENTAL PROTOCOL: NCI tumour cell line growth inhibition, 48 h
TEST READOUT: TGI

Output TGI of "O=C(c1ccc(Cl)cc1)N(C(=O)N1CCC(c2ccccc2)CC1)c1ccccc1"
88.2 µM

Output TGI of O=C1NC2(CCCCCC2)C2CCCCCCC12O (stereo unspecified)
> 100 µM

Output TGI of "CCn1c(-c2ccc(N=NNc3ccc(-c4n[nH]c(=S)n4CC)cc3)cc2)n[nH]c1=S"
8.2 µM

Output TGI of "O=C(CCc1ccc(O)c(O)c1)NCCc1cc(O)cc(O)c1"
> 100 µM

Output TGI of "COc1cc(CO)c(CC(=O)NCCCc2ccccc2)cc1OC"
> 100 µM

Output TGI of "COc1cccc(C2=C(c3c(C)n(C)c4ccccc34)C(=O)NC2=O)c1"
> 25 µM
